System: MKN1 cells
Assay: Inhibition of KRas-mediated phosphorylation of ERK (Cisbio HTRF pERK), MKN1 cells
Assay type: cell-based
Details: Homo sapiens, MKN-1, 3 hour compound incubation, Cisbio pERK HTRF
endpoint-label: IC50 (nM)

• CCc1c(F)ccc2cc(O)cc(N3CCc4c(nc(OC[C@@]56CCCN5C[C@H](F)C6)nc4N4Cc5cn(C(=O)N(C)C)nc5CC(C)(C)C4)C3)c12 = 148
• CCc1c(F)ccc2cc(O)cc(N3CCc4c(nc(OC[C@@]56CCCN5C[C@H](F)C6)nc4N4CCCn5nc6c(c5C4)CCCN(C)C6=O)C3)c12 = 3.1
• O=C1CC2(CCCN(c3nc(OC[C@@]45CCCN4C[C@H](F)C5)nc4c3CCN(c3cc(O)cc5ccc(F)c(Cl)c35)C4)C2)C(=O)N1 (stereo partly drawn) = 37.2

---

# IC50 listing for each entry below
Target: KRas G12V (Homo sapiens, UniProt P01116, G12V)
Sequence (P01116 1-169 isoform P01116-2 G12V): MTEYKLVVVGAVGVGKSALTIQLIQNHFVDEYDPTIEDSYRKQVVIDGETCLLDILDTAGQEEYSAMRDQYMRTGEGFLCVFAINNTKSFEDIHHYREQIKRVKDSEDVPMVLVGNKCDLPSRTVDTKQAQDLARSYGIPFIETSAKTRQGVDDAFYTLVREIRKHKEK
Test: biochemical
Settings: Binding to KRas (IC50 nM) G12V, TR-FRET displacement, KRas G12V
endpoint-label: IC50 (nM)

- CCc1cccc2cccc(N3CCc4c(nc(OCC5(CN(C)C)CC5)nc4N4CCCOCC4)C3)c12 [Example 669]: 199
- CCc1cccc2cccc(N3CCc4c(nc(OCC5(CN(C)C)CC5)nc4NCC4COCC4n4cc(C(N)=O)nn4)C3)c12 (stereo not drawn) [Example 705]: 8520
- CCc1c(F)ccc2cc(O)cc(N3CCc4c(nc(N5CC(N)C5)nc4N4CCC[C@@](C)(O)C4)C3)c12 [Example 486]: 886

---

Target: UniProt P01116
Test: KRas binding assay (TR-FRET displacement), KRas WT
Details: TR-FRET displacement
Field: label. Allowed values: met (IC50 < 2000 nM) or not met (IC50 >= 2000 nM).

- O=C1NC(=O)C2CN(c3nc(OCC45CCCN4CCC5)nc4c3CCN(c3cc(O)cc(Cl)c3C3CC3)C4)CC12 (stereo not drawn): met
- CCc1cccc2cccc(N3CCc4c(nc(OCC5(CN(C)C)CC5)nc4N4CC(CO)OC(C(F)(F)F)C4)C3)c12 (stereo not drawn): not met
- Cc1cc2[nH]ncc2c(N2CCc3c(nc(OCC45CCCN4CCC5)nc3N3CCOCC(C)(O)C3)C2)c1C (stereo not drawn): met
- CN(C)C(=O)c1cc2n(n1)CCCN(c1nc(OC[C@@]34CCCN3C[C@H](F)C4)nc3c1CCN(c1cccc4cccc(Cl)c14)C3)C2: met
- C[C@@]1(O)COCCN(c2nc(OC[C@@]34CCCN3C[C@H](F)C4)nc3c2CCN(c2ccc(F)c4sc(N)c(C#N)c24)C3)C1: met
- CCc1cccc2cccc(N3CCc4c(nc(OCC5(CN(C)C)CC5)nc4NC4CC(n5ccnn5)C4)C3)c12 (stereo not drawn): not met
- CCc1c(F)ccc2cccc(N3CCc4c(nc(OC[C@@]56CCCN5C[C@H](F)C6)nc4N4CCCn5nc(C(=O)N(C)C)cc5C4)C3)c12: met
- CCc1cccc2cccc(N3CCc4c(nc(OCC5(CN(C)C)CC5)nc4N4CCC(F)C(OC)C4)C3)c12 (stereo not drawn): met
- Cc1cc2[nH]ncc2c(N2CCc3c(nc(OCC4(CN(C)C)CC4)nc3N3CCC[C@]4(C3)NC(=O)NC4=O)C2)c1C: met
- CCc1cccc2cccc(N3CCc4c(nc(OCC5(CN(C)C)CC5)nc4N4CCCN(CC(F)(F)F)CC4)C3)c12: met
- CCc1cccc2cccc(N3CCc4c(nc(OCC5(CN(C)C)CC5)nc4NC4CCCc5[nH]ncc54)C3)c12 (stereo not drawn): not met
- CCc1cccc2cccc(N3CCc4c(nc(OCC5(CN(C)C)CC5)nc4N4CCCC(c5nnc[nH]5)C4)C3)c12 (stereo not drawn): met
- CCc1cccc2cccc(N3CCc4c(nc(OCC5(CN(C)C)CC5)nc4N4CCN(C(=O)c5c[nH]c(=O)[nH]5)CC4)C3)c12: not met
- Oc1cc(Cl)c(C2CC2)c(N2CCc3c(nc(OCC45CCCN4CCC5)nc3N3CC4CC(O)C(C4)C3)C2)c1 (stereo not drawn): met
- Cc1cc2[nH]ncc2c(N2CCc3c(nc(OCC45CCCN4CCC5)nc3N3CCCn4nc(C(=O)N(C)C)cc4C3)C2)c1C: met
- CCc1cccc2cccc(N3CCc4c(nc(OCC5(CN(C)C)CC5)nc4NCc4ncc5c(n4)CCOC5)C3)c12: not met
- Cc1cc2[nH]ncc2c(N2CCc3c(nc(OC[C@@]45CCCN4C[C@H](F)C5)nc3N3CCC[C@]4(C3)NC(=O)NC4=O)C2)c1C: met
- CCc1cccc2cccc(N3CCc4c(nc(OCC5(CN(C)C)CC5)nc4N4CCCn5nc(CO)cc5C4)C3)c12: met
- CCc1cccc2cccc(N3CCc4c(nc(OCC5(CN(C)C)CC5)nc4N4CCC(n5cn[nH]c5=O)CC4)C3)c12: not met
- C=C1CN2CC(=C)CC2(COc2nc3c(c(N4CCC[C@@](C)(O)C4)n2)CCN(c2cc(O)cc4ccc(F)c(CC)c24)C3)C1: met
- CCc1cccc2cccc(N3CCc4c(nc(OCC5(CN(C)C)CC5)nc4N4CCn5nnc(CO)c5C4)C3)c12: not met
- CCc1cccc2cccc(N3CCc4c(nc(OCC5(CN(C)C)CC5)nc4NCC4COCC4n4cc(C(N)=O)nn4)C3)c12 (stereo not drawn): not met
- Cc1cc2[nH]ncc2c(N2CCc3c(nc(OCC45CCCN4CCC5)nc3N3CC4CC(O)C(C4)C3)C2)c1C (stereo not drawn): met
- C=C1CN2CC(=C)CC2(COc2nc3c(c(N4C[C@@H]5C[C@H](C4)[C@H](O)C5)n2)CCN(c2cc(O)cc4ccc(F)c(CC)c24)C3)C1: met
- CC1(O)COCCN(c2nc(OCC34CCCN3CCC4)nc3c2CCN(c2cc(O)cc(Cl)c2C2CC2)C3)C1 (stereo not drawn): met
- Cc1cc2[nH]ncc2c(N2CCc3c(nc(OCC45CCCN4CCC5)nc3N3CCCC4(C3)NC(=O)NC4=O)C2)c1C (stereo not drawn): met
- CCc1cccc2cccc(N3CCc4c(nc(OCC5(CN(C)C)CC5)nc4N4CC(C)CC(CO)C4)C3)c12 (stereo not drawn): not met
